Origin of values: paper PMC3973318

# subject.of.test: T1, ΔN-DRH3 (Caenorhabditis elegans, UniProt Q93413 300-1119)
# T1 sequence: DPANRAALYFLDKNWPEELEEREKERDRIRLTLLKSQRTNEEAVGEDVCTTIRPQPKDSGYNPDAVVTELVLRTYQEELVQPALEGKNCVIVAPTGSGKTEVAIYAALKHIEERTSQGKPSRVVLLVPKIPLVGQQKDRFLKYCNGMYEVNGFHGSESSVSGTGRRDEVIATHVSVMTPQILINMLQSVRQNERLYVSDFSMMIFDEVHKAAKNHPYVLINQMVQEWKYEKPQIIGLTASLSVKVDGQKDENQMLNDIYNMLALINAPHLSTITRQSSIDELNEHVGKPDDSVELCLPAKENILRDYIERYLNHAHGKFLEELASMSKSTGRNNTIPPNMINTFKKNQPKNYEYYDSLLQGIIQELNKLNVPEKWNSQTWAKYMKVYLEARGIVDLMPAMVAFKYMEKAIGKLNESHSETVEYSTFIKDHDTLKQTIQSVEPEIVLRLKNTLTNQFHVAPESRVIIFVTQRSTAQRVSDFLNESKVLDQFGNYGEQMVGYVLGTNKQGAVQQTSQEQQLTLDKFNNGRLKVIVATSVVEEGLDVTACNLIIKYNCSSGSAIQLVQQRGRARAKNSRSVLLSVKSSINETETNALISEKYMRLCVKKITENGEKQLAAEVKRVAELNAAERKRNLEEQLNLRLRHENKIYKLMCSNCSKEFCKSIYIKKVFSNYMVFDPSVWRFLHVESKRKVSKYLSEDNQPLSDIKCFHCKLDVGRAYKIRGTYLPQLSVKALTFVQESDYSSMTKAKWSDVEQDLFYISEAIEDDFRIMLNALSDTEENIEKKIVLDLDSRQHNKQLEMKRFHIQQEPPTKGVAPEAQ
# assay.remarks: EMSA
pKd: −log10 of the molar value.

binder: dsPPP12 (dsRNA, 5' triphosphate on top strand) RNA 1: GCCCAGACCACC RNA 2: GGUGGUCUGGGC
pKd: 6.76
